# STUDY TARGET: Epidermal growth factor receptor (Homo sapiens, UniProt P00533)
# Sequence (P00533 whole entry): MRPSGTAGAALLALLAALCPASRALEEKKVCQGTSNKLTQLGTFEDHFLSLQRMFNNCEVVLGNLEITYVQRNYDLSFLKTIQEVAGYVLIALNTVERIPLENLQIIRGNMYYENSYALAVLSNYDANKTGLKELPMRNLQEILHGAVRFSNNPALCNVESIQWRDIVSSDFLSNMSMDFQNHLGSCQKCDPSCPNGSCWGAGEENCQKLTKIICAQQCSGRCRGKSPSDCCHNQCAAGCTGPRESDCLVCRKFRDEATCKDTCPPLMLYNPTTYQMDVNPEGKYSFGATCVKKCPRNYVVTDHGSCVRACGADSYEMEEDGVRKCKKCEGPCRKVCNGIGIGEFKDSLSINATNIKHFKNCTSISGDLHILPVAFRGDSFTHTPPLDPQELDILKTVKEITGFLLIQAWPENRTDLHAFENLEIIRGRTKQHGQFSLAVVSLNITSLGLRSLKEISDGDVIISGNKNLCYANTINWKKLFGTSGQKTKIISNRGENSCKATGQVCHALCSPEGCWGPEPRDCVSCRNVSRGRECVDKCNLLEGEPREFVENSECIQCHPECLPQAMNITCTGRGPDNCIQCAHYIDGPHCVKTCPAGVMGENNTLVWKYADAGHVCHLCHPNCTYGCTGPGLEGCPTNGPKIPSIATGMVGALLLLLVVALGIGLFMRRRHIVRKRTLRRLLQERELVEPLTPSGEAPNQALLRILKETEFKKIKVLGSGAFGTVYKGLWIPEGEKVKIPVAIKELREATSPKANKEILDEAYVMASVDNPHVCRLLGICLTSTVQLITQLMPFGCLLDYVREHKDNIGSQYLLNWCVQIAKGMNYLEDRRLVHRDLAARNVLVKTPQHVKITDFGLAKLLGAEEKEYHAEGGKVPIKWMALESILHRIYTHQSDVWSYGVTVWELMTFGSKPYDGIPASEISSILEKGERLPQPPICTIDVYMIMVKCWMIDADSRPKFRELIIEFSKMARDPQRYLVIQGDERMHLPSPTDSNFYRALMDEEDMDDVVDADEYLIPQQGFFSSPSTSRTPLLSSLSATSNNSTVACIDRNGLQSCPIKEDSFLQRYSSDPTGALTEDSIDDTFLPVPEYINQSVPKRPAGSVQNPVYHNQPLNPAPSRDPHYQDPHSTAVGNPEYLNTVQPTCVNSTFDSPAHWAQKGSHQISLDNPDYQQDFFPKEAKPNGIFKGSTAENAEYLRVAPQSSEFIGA
OBSERVATION TYPE: IC50 (µM)

Guide cases for IC50, answers given:
COMPOUND | STUDY TARGET | OBSERVED
O=C(/C=C/CN1CCCC1)N1CCOc2cc3ncnc(Nc4ccc(F)c(Cl)c4)c3cc21 | Epidermal growth factor receptor (Homo sapiens, UniProt P00533) | 0.018
CN(C)C/C=C/C(=O)N1CCCOc2cc3ncnc(Nc4ccc(F)c(Cl)c4)c3cc21 | Epidermal growth factor receptor (Homo sapiens, UniProt P00533) | 0.36
O=C(/C=C/CN1CCOCC1)N1CCOc2cc3ncnc(Nc4ccc(F)c(Cl)c4)c3cc21 | Epidermal growth factor receptor (Homo sapiens, UniProt P00533) | 0.146
CC1CCCCN1C/C=C/C(=O)N1CCOc2cc3ncnc(Nc4ccc(F)c(Cl)c4)c3cc21 (configuration not stated) | Epidermal growth factor receptor (Homo sapiens, UniProt P00533) | 0.043
CCN(CC)C/C=C/C(=O)N1CCCOc2cc3ncnc(Nc4ccc(F)c(Cl)c4)c3cc21 | Epidermal growth factor receptor (Homo sapiens, UniProt P00533) | 1.01

(P) CN(C)C/C=C/C(=O)N1CCOc2cc3ncnc(Nc4ccc(F)c(Cl)c4)c3cc21
(Q) CN1CCN(C/C=C/C(=O)N2CCOc3cc4ncnc(Nc5ccc(F)c(Cl)c5)c4cc32)CC1
# input Between item P and item Q , which reported IC50 is smaller? // caller expects the label of the chosen entry
# output P
(P: 0.014 µM, Q: 0.083 µM)

* * *

# System: A-431
# ASSAY COMMENT: cells
# Assay type: functional, cell-based
# STATED CONDITIONS: Homo sapiens, A-431, 72 h
# Description: Cytotoxicity against human A431 cells overexpressing EGFR assessed as growth inhibition after 72 hrs by MTT assay
OBSERVATION TYPE: IC50 (nM)

Guide cases for IC50, answers given:
MOLECULE | OBSERVATION TYPE | OBSERVED
CN1CCN(C/C=C/C(=O)N2CCOc3cc4ncnc(Nc5ccc(F)c(Cl)c5)c4cc32)CC1 | IC50 | 1100
CCN(CC)C/C=C/C(=O)N1CCCOc2cc3ncnc(Nc4ccc(F)c(Cl)c4)c3cc21 | IC50 | 3380
O=C(/C=C/CN1CCCC1)N1CCOc2cc3ncnc(Nc4ccc(F)c(Cl)c4)c3cc21 | IC50 | 100
O=C(/C=C/CN1CCCC1)N1CCCOc2cc3ncnc(Nc4ccc(F)c(Cl)c4)c3cc21 | IC50 | 2700
O=C(/C=C/CN1CCCCC1)N1CCOc2cc3ncnc(Nc4ccc(F)c(Cl)c4)c3cc21 | IC50 | 190

(a) CC1CCCCN1C/C=C/C(=O)N1CCOc2cc3ncnc(Nc4ccc(F)c(Cl)c4)c3cc21 (stereo not drawn)
(b) CC1CCCCN1C/C=C/C(=O)N1CCCOc2cc3ncnc(Nc4ccc(F)c(Cl)c4)c3cc21 (stereo not drawn)
# input Between a and b , whose measured IC50 reads higher? // caller expects the label of the chosen entry
# output b
(b: 3010 nM, a: 500 nM)

(I) CN(C)C/C=C/C(=O)N1CCCOc2cc3ncnc(Nc4ccc(F)c(Cl)c4)c3cc21
(II) CCN(CC)C/C=C/C(=O)N1CCOc2cc3ncnc(Nc4ccc(F)c(Cl)c4)c3cc21
(III) CC1CCN(C/C=C/C(=O)N2CCOc3cc4ncnc(Nc5ccc(F)c(Cl)c5)c4cc32)CC1
# input # sort list by recorded IC50, greatest to least Note for the reader: the ranking is given by listing the labels in the order requested.
# output I, III, II
(I: 2420 nM, III: 330 nM, II: 190 nM)

* * *

# System: NCI-H1975
# ASSAY COMMENT: cells
# Format: functional, cell-based
# STATED CONDITIONS: Homo sapiens, NCI-H1975, 72 h
# Description: Cytotoxicity against human NCI-H1975 cells harboring EGFR L858R/T790M double mutant assessed as growth inhibition after 72 hrs by MTT assay
OBSERVATION TYPE: IC50 (nM)

(a) CC1CCCCN1C/C=C/C(=O)N1CCOc2cc3ncnc(Nc4ccc(F)c(Cl)c4)c3cc21 (stereo not given)
(b) O=C(/C=C/CN1CCCC1)N1CCOc2cc3ncnc(Nc4ccc(F)c(Cl)c4)c3cc21
# input Between item a and item b , which reported IC50 is smaller? // caller expects the label of the chosen entry
# output b
(b: 360 nM, a: 550 nM)

* * *

# System: NCI-H1975
# ASSAY COMMENT: cells
# Format: functional, cell-based
# STATED CONDITIONS: Homo sapiens, NCI-H1975, 72 h
OBSERVATION TYPE: IC50 (nM)

(a) O=C(/C=C/Cn1ccnc1)N1CCOc2cc3ncnc(Nc4ccc(F)c(Cl)c4)c3cc21
(b) O=C(/C=C/CN1CCCCC1)N1CCOc2cc3ncnc(Nc4ccc(F)c(Cl)c4)c3cc21
# input Between a and b , whose measured IC50 reads higher? // caller expects the label of the chosen entry
# output a

* * *

# Tested on: NCI-H1975
# ASSAY COMMENT: cells
# Format: functional, cell-based
# STATED CONDITIONS: Homo sapiens, NCI-H1975, 72 h
OBSERVATION TYPE: IC50 (nM)

Guide cases for IC50, answers given:
QUERY SMILES | IC50 [nM]
CCN(CC)C/C=C/C(=O)N1CCCOc2cc3ncnc(Nc4ccc(F)c(Cl)c4)c3cc21 | 8920
O=C(/C=C/CN1CCOCC1)N1CCOc2cc3ncnc(Nc4ccc(F)c(Cl)c4)c3cc21 | 500
CN(C)C/C=C/C(=O)N1CCCOc2cc3ncnc(Nc4ccc(F)c(Cl)c4)c3cc21 | 6140

(1) CCN(CC)C/C=C/C(=O)N1CCOc2cc3ncnc(Nc4ccc(F)c(Cl)c4)c3cc21
(2) CC1CCN(C/C=C/C(=O)N2CCOc3cc4ncnc(Nc5ccc(F)c(Cl)c5)c4cc32)CC1
# input Between item 1 and item 2 , which reported IC50 is smaller? // caller expects the label of the chosen entry
# output 1

(A) CN1CCN(C/C=C/C(=O)N2CCOc3cc4ncnc(Nc5ccc(F)c(Cl)c5)c4cc32)CC1
(B) CN(C)C/C=C/C(=O)N1CCOc2cc3ncnc(Nc4ccc(F)c(Cl)c4)c3cc21
# input Between A and B , whose measured IC50 reads higher? // caller expects the label of the chosen entry
# output A

* * *

# STUDY TARGET: Epidermal growth factor receptor (Homo sapiens, UniProt P00533)
OBSERVATION TYPE: IC50 (nM)

Guide cases for IC50, answers given:
MOLECULE | STUDY TARGET | IC50, nM
O=C(/C=C/CN1CCCC1)N1CCOc2cc3ncnc(Nc4ccc(F)c(Cl)c4)c3cc21 | Epidermal growth factor receptor (Homo sapiens, UniProt P00533) | 3
CC1CCN(C/C=C/C(=O)N2CCOc3cc4ncnc(Nc5ccc(F)c(Cl)c5)c4cc32)CC1 | Epidermal growth factor receptor (Homo sapiens, UniProt P00533) | 5
CC1CCCCN1C/C=C/C(=O)N1CCOc2cc3ncnc(Nc4ccc(F)c(Cl)c4)c3cc21 (configuration not stated) | Epidermal growth factor receptor (Homo sapiens, UniProt P00533) | 3
CN(C)C/C=C/C(=O)N1CCOc2cc3ncnc(Nc4ccc(F)c(Cl)c4)c3cc21 | Epidermal growth factor receptor (Homo sapiens, UniProt P00533) | 4
O=C(/C=C/CN1CCOCC1)N1CCOc2cc3ncnc(Nc4ccc(F)c(Cl)c4)c3cc21 | Epidermal growth factor receptor (Homo sapiens, UniProt P00533) | 7

(A) CN1CCN(C/C=C/C(=O)N2CCOc3cc4ncnc(Nc5ccc(F)c(Cl)c5)c4cc32)CC1
(B) O=C(/C=C/CN1CCCCC1)N1CCOc2cc3ncnc(Nc4ccc(F)c(Cl)c4)c3cc21
# input Between item A and item B , which reported IC50 is smaller? // caller expects the label of the chosen entry
# output B

* * *

Entries with reported pIC50 on Epidermal growth factor receptor (Homo sapiens, UniProt P00533)
pIC50: −log10 of the molar value.
OBSERVATION TYPE: pIC50

Guide cases for pIC50, answers given:
QUERY SMILES | STUDY TARGET | pIC50
CC1CCN(C/C=C/C(=O)N2CCOc3cc4ncnc(Nc5ccc(F)c(Cl)c5)c4cc32)CC1 | Epidermal growth factor receptor (Homo sapiens, UniProt P00533) | 7.40
O=C(/C=C/Cn1ccnc1)N1CCOc2cc3ncnc(Nc4ccc(F)c(Cl)c4)c3cc21 | Epidermal growth factor receptor (Homo sapiens, UniProt P00533) | 6.26

(I) O=C(/C=C/CN1CCCCC1)N1CCOc2cc3ncnc(Nc4ccc(F)c(Cl)c4)c3cc21
(II) O=C(/C=C/CN1CCCC1)N1CCCOc2cc3ncnc(Nc4ccc(F)c(Cl)c4)c3cc21
# input Between item I and item II , which reported pIC50 is smaller? // caller expects the label of the chosen entry
# output II

* * *

Below: a set of entries, each annotated with reported pIC50.
# Tested on: A-431
# ASSAY COMMENT: cells
# Type: functional, cell-based
# STATED CONDITIONS: Homo sapiens, A-431, 72 h
pIC50: −log10 of the molar value.

Guide cases for pIC50, answers given:
QUERY SMILES | STUDY TARGET | pIC50
O=C(/C=C/Cn1ccnc1)N1CCCOc2cc3ncnc(Nc4ccc(F)c(Cl)c4)c3cc21 | A-431 | < 5.00
O=C(/C=C/CN1CCOCC1)N1CCCOc2cc3ncnc(Nc4ccc(F)c(Cl)c4)c3cc21 | A-431 | < 5.00
CC1CCN(C/C=C/C(=O)N2CCCOc3cc4ncnc(Nc5ccc(F)c(Cl)c5)c4cc32)CC1 | A-431 | < 5.00
CN1CCN(C/C=C/C(=O)N2CCCOc3cc4ncnc(Nc5ccc(F)c(Cl)c5)c4cc32)CC1 | A-431 | < 5.00
O=C(/C=C/CN1CCOCC1)N1CCOc2cc3ncnc(Nc4ccc(F)c(Cl)c4)c3cc21 | A-431 | 5.84
O=C(/C=C/CN1CCCCC1)N1CCCOc2cc3ncnc(Nc4ccc(F)c(Cl)c4)c3cc21 | A-431 | < 5.00

# input Return the recorded pIC50 value; entry: CN(C)C/C=C/C(=O)N1CCOc2cc3ncnc(Nc4ccc(F)c(Cl)c4)c3cc21
# output 6.70

# input Return the recorded pIC50 value; entry: O=C(/C=C/Cn1ccnc1)N1CCOc2cc3ncnc(Nc4ccc(F)c(Cl)c4)c3cc21
# output 5.77

Value source: ChEMBL document CHEMBL4431348
